- target_of_assay: T1, MPK4 as prey (AD fusion) (Arabidopsis thaliana, UniProt Q39024 1-376, limits assumed)
- T1 construct: Used in the directed two-hybrid assay with MKS1 as bait; also called MPK4 prey
- T1 sequence (looked up): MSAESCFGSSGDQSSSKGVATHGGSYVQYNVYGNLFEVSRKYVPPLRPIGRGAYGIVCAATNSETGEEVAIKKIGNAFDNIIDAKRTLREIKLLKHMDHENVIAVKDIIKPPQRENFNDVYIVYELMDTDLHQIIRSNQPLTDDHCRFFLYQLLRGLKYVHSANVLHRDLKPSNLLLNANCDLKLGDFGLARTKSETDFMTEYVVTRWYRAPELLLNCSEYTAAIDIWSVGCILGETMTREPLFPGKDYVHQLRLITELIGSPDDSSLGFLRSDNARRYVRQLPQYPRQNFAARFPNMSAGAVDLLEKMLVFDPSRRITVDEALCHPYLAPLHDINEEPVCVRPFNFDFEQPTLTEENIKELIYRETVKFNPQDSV
- experiment_summary: yeast two-hybrid assay

[
  {
    "binder": "C3-MKS1 truncation (amino acids 1-73), two-hybrid construct (other, not shown: large carriers) MDPSEYFAGGNPSDQQNQKRQLQICGPRPSPLSVHKDSHKIKKPPKHPAPPPNRDQPPPYIPREPVVIYAVSP",
    "binding result": "binds"
  },
  {
    "binder": "C1-MKS1 truncation (amino acids 1-196), two-hybrid construct (other, not shown: large carriers) MDPSEYFAGGNPSDQQNQKRQLQICGPRPSPLSVHKDSHKIKKPPKHPAPPPNRDQPPPYIPREPVVIYAVSPKVVHATASEFMNVVQRLTGISSGVFLESGGGGDVSPAARLASTENASPRGGKEPAARDETVEINTAMEEAAEFGGYAPGILSPSPALLPTASTGIFSPMYHQGGMFSPAIPLGLFSPAGFMSP",
    "binding result": "binds"
  },
  {
    "binder": "C2-MKS1 truncation (amino acids 1-123), two-hybrid construct (other, not shown: large carriers) MDPSEYFAGGNPSDQQNQKRQLQICGPRPSPLSVHKDSHKIKKPPKHPAPPPNRDQPPPYIPREPVVIYAVSPKVVHATASEFMNVVQRLTGISSGVFLESGGGGDVSPAARLASTENASPRG",
    "binding result": "binds"
  }
]
